assay.overview: CCTE_Shafer_MEA_acute_cross_correlation_HWHM: CCTE's Neural Acute Assay for Cross Correlation at Half Width at Half Maximum, Shafer Lab (AID 2284026);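 note: percent change per well from pre-dose baseline in spike cross-correlogram half width; hits are a decrease in cross-correlogram half width relative to DMSO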
Experimental: CCTE_Shafer_MEA_acute assay is conducted using Axion Biosystems 48 well microelectrode array (MEA) plates and Maestro recording system. Each well of the MEA plate contains a grid of 16 microelectrodes embedded in the culture surface. Electrically active cells, such as neurons, can be cultured over the electrodes, and electrical activity in these cells can be recorded extracellularly. […]
Active and inactive are the calls of the source. Rule for the calls: active = hit-call score of the fitted dose curve at least 0.9, where 1 is the maximum; inactive = score below 0.9.
Possible outcomes: 1 (active), 0 (inactive)

1) OC(CCl)CCl; 0
2) CC[C@H](C)C(=O)O[C@H]1C[C@H](O)C=C2C=C[C@H](C)[C@H](CC[C@@H](O)C[C@@H](O)CC(=O)O)[C@H]21; 0
3) COc1cc(C(C)C)c2c(c1)S(=O)(=O)N(COc1cc(=O)n3cccc(OCCN4CCCCC4)c3n1)C2=O; 1
4) COCc1nnc(-c2ccc[n+]([O-])c2)n1-c1c(Cl)c(Cl)cc2[nH]c(=O)c(=O)[nH]c12; 1
5) CCCCCCCC/C=C\CCCCCCCC(=O)OC[C@@H](O)[C@H]1OC[C@H](O)[C@H]1O; 0
6) CCCCC(CC)C(=O)OCCOCCOCCOC(=O)C(CC)CCCC (stereo not drawn); 0
7) c1ccc2cc3ccccc3cc2c1; 0
8) Cc1ncc([C@@H](CCCCCCc2ccc3c(n2)NCCC3)CC(=O)O)cn1; 0

====

assay.overview: BSK_SAg_Proliferation: Cell Proliferation Assessment in the BioMAP Diversity Plus: SAg Assay (AID 2283095);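 note: relative cell number as total protein by SRB absorbance in sub-confluent culture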
test.conditions: primary human HUVEC with PBMC
Active and inactive are the calls of the source. The calls were made as follows: active = hit-call score of the fitted dose curve at least 0.9, where 1 is the maximum; inactive = score below 0.9.
Outcomes: Yes for active, No for inactive

1) NCC(F)(F)C(F)(F)C(F)(F)C(F)(F)F; No
2) OCc1ccccc1; No
3) NC(N)=O; No
4) CCCOc1ccc(S(=O)(=O)N2CCN(CC)CC2)cc1-c1nc2c(CC)n(Cc3ccccn3)nc2c(=O)[nH]1; No
5) CCCCN1C(=O)[C@@H]([C@H](O)C2CCCCC2)NC(=O)C12CCN(Cc1ccc(Oc3ccc(C(=O)O)cc3)cc1)CC2; No
6) CCCc1ccccc1; No
7) CC[C@H](C)C(=O)O[C@H]1C[C@H](O)C=C2C=C[C@H](C)[C@H](CC[C@@H](O)C[C@@H](O)CC(=O)O)[C@H]21; No
8) CC(C)CCCCCCOC(=O)C1CCCCC1C(=O)OCCCCCCC(C)C (stereo unspecified); No
9) CCCCCCCC/C=C\CCCCCCCC(=O)OC[C@@H](O)[C@H]1OC[C@H](O)[C@H]1O; No
10) Nc1ccn([C@@H]2O[C@H](CO)[C@@H](O)[C@@H]2O)c(=O)n1; Yes
11) FC(F)C(F)(F)COCC1CO1 (stereo unspecified); No
12) OC[C@H]1O[C@@](CO)(O[C@H]2O[C@H](CO)[C@@H](O)[C@H](O)[C@H]2O)[C@@H](O)[C@@H]1O; No
13) O=c1[nH]cnc2c1ncn2[C@H]1CC[C@@H](CO)O1; No
14) CCN(CC)C(=S)SSC(=S)N(CC)CC; Yes
15) CCOC(N)=O; No
16) FC(F)=C(F)C(F)(F)C(F)(F)C(F)(F)C(F)(F)C(F)(F)C(F)(F)F; No
